Test system: CCRF-CEM;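 further: ALL cell lines in 384-well plates, five doses spanning 10,000-fold, each plate scaled between vehicle and 100 µmol/L benzalkonium chloride controls, sDSS an adapted area-under-curve metric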
Experiment: selective drug sensitivity score (sDSS, relative to normal bone marrow) (sDSS (score)); higher = more potent and effective on the cell line relative to normal bone marrow cells
Conditions: 72 h
Threshold check on selective drug sensitivity score: at or above 3 gives Fulfilled, strictly below gives Not fulfilled.

Q: Item N#Cc1ccc2[nH]c(O)c(-c3ccc(CN4CCOCC4)cn3)c2c1 [AZD-1080] (top concentration 10000 nM) with selective drug sensitivity score of 3 or above?
A: Not fulfilled

Q: Could you do the same for COc1ccc(C[C@H](NC(=O)[C@H](C)NC(=O)CN2CCOCC2)C(=O)N[C@@H](Cc2ccccc2)C(=O)[C@@]2(C)CO2)cc1 [ONX-0914] (top concentration 10000 nM) , please?
A: Fulfilled

Q: Could you do the same for O=C(/C=C\n1cnc(-c2cc(C(F)(F)F)cc(C(F)(F)F)c2)n1)NNc1ccccn1 [Verdinexor] (top concentration 1000 nM) , please?
A: Fulfilled

Q: Could you do the same for CC[C@]1(O)C[C@H]2CN(CCc3c([nH]c4ccccc34)[C@@](C(=O)OC)(c3cc4c(cc3OC)N(C=O)[C@H]3[C@@](O)(C(=O)OC)[C@H](OC(C)=O)[C@]5(CC)C=CCN6CC[C@]43[C@@H]65)C2)C1 [Vincristine] (top concentration 1000 nM) , please?
A: Fulfilled

Q: Could you do the same for Cn1cc(-c2cnn3c(N)c(Br)c([C@@H]4CCCNC4)nc23)cn1 [MK-8776] (top concentration 2500 nM) , please?
A: Not fulfilled

Q: Could you do the same for Cn1cc(C2=C(c3cn(C4CCN(Cc5ccccn5)CC4)c4ccccc34)C(=O)NC2=O)c2ccccc21 [Enzastaurin] (top concentration 10000 nM) , please?
A: Fulfilled

Q: Could you do the same for CCOc1cc2ncc(C#N)c(Nc3ccc(OCc4ccccn4)c(Cl)c3)c2cc1NC(=O)/C=C/CN(C)C [Neratinib] (top concentration 1000 nM) , please?
A: Not fulfilled

Q: Could you do the same for CN(C)CC#Cc1ccc(OCCCc2sc(N3CCc4cccc(C(=O)Nc5nc6ccccc6s5)c4C3)nc2C(=O)O)c(F)c1 (top concentration 10000 nM) , please?
A: Fulfilled

Q: Could you do the same for CCNCCS(=O)(=O)NC[C@@]1(c2ccccc2)SC(NC(=O)C(C)(C)C)=NN1C(=O)C(C)(C)C [Litronesib] (top concentration 1000 nM) , please?
A: Fulfilled

Q: Could you do the same for NCCNc1ccc(NCCN)c2c1C(=O)c1ccncc1C2=O [Pixantrone] (top concentration 10000 nM) , please?
A: Not fulfilled

Q: Could you do the same for CCN(CC)CCOc1ccc(/C(=C(/Cl)c2ccccc2)c2ccccc2)cc1 [Clomifene] (top concentration 10000 nM) , please?
A: Not fulfilled

Q: Could you do the same for CCCC(CCC)C(=O)O [Valproic_acid] (top concentration 1000000 nM) , please?
A: Not fulfilled

src = the supplement of paper PMC8967900
